Measured On: SpMyo1
Protocol Description: SPOT peptide array binding signal intensity (averaged, normalized) (arbitrary units (background-subtracted, floor 0; scale differs between SH3 domains)); higher = stronger binding of the SH3 domain to the peptide
Measured Quantity: SPOT peptide array binding signal intensity

**Query** Sample RKQRSIPLSPIVPES — what was its SPOT peptide array binding signal intensity?
**Result** 3

**Query** Query (binder): HGKRRAPLLLAKLDV ; field requested: SPOT peptide array binding signal intensity
**Result** 2

**Query** May I ask what SPOT peptide array binding signal intensity has been recorded for IFLRISINFPLNYPN ?
**Result** 168

**Query** Returns the measured SPOT peptide array binding signal intensity for the input binder. Input: VPKEPAPAPPPEPDM
**Result** 670
